This collection of values is drawn from patent US8058306B2.

# measurement-description: Plasma kinetics in rat following intravenous and oral administration
# Format: in vivo, Sprague Dawley rats
# condition-context: male, Sprague Dawley, rat, plasma, iv, 10 mg/kg, intravenous 10 mg/kg, male rats, Median; read-out: MRT
measurement-kind: MRT (h)

# molecule, units, MRT
data = [
    ("N=C(N)NN=CC=Cc1cccn1-c1ccccc1[N+](=O)[O-] [Compound 2, acetate]", "h", 3.53),
]

[A] N=C(N)NN=CC=Cc1cccn1-c1ccc(Cl)cc1 [Compound 1, acetate]
[B] N=C(N)NN=CC=Cc1cccn1-c1ccccc1Br [Compound 3, acetate]
Query :: Kindly identify the item with the lower MRT figure among these two: A and B Label of pick, please.
Result :: B

====

# measurement-description: Plasma kinetics in rat following intravenous and oral administration
# Assay type: in vivo, Sprague Dawley rats
# condition-context: male, Sprague Dawley, rat, plasma, po, 10 mg/kg, single oral 10 mg/kg, male rats, 4 h, mean of 3; read-out: Mean Concentration in plasma
measurement-kind: concentration at 4 h (ng/mL)

# compound, reported-result
measured = [
    ("N=C(N)NN=CC=Cc1cccn1-c1ccc(Cl)cc1 [Compound 1, acetate]", 90.3),
]

[I] N=C(N)NN=CC=Cc1cccn1-c1ccccc1Br [Compound 3, acetate]
[II] N=C(N)NN=CC=Cc1cccn1-c1ccccc1[N+](=O)[O-] [Compound 2, acetate]
Query :: Of the two listed items, which has the higher concentration at 4 h? First: I Second: II Answer = label.
Result :: I

====

# measurement-description: Plasma kinetics in rat following intravenous and oral administration
# Assay type: in vivo, Sprague Dawley rats
# condition-context: male, Sprague Dawley, rat, plasma, iv, 10 mg/kg, intravenous 10 mg/kg, male rats, Arithmetic Mean; read-out: CL (converted)
measurement-kind: clearance (mL/min/kg)

# compound, units, clearance
rows = [
    ("N=C(N)NN=CC=Cc1cccn1-c1ccccc1Br [Compound 3, acetate]", "mL/min/kg", 71.3),
]

[A] N=C(N)NN=CC=Cc1cccn1-c1ccccc1[N+](=O)[O-] [Compound 2, acetate]
[B] N=C(N)NN=CC=Cc1cccn1-c1ccc(Cl)cc1 [Compound 1, acetate]
Query :: Which entry has a larger number for clearance, A or B ? Record your answer as the label of the chosen record.
Result :: A

====

# measurement-description: Plasma kinetics in rat following intravenous and oral administration
# Assay type: in vivo, Sprague Dawley rats
# condition-context: male, Sprague Dawley, rat, plasma, iv, 10 mg/kg, intravenous 10 mg/kg, male rats, individual animals; read-out: MRT
# Protocol: This study determined the intravenous pharmacokinetics and oral bioavailability of compound 1 of the invention (see FIG. 1A, structure no. 1), compound 2 of the invention (see FIG. 1D, structure no. 19) and compound 3 of the invention (see FIG. 1I, structure no. 53) following administration to Sprague Dawley rats at a dose level of 10 mg/kg. […]
measurement-kind: MRT (h)

# molecule, units, MRT
data = [
    ("N=C(N)NN=CC=Cc1cccn1-c1ccccc1[N+](=O)[O-] [Compound 2, acetate]", "h", 3.53),
]

[1] N=C(N)NN=CC=Cc1cccn1-c1ccccc1Br [Compound 3, acetate]
[2] N=C(N)NN=CC=Cc1cccn1-c1ccc(Cl)cc1 [Compound 1, acetate]
Query :: Sorting by MRT in descending order, would 1 or 2 appear first? Identify your selection by its label.
Result :: 2
(2: 7.31 h, 1: 3.96 h)

====

# measurement-description: Plasma kinetics in rat following intravenous and oral administration
# Type: in vivo, Sprague Dawley rats
# condition-context: male, Sprague Dawley, rat, plasma, iv, 10 mg/kg, single intravenous 10 mg/kg, male rats, 8 h, mean; read-out: Mean Concentration in plasma
measurement-kind: concentration at 8 h (ng/mL)

# molecule, measurement-kind, reported-result
rows = [
    ("N=C(N)NN=CC=Cc1cccn1-c1ccc(Cl)cc1 [Compound 1, acetate]", "concentration at 8 h", 97),
    ("N=C(N)NN=CC=Cc1cccn1-c1ccccc1[N+](=O)[O-] [Compound 2, acetate]", "concentration at 8 h", 65.1),
    ("N=C(N)NN=CC=Cc1cccn1-c1ccccc1Br [Compound 3, acetate]", "concentration at 8 h", 81.2),
]

====

# measurement-description: Plasma kinetics in rat following intravenous and oral administration
# Type: in vivo, Sprague Dawley rats
# condition-context: male, Sprague Dawley, rat, plasma, po, 10 mg/kg, oral 10 mg/kg, male rats, Median; read-out: MRT
measurement-kind: MRT (h)
The reply should be a number in h, with the unit left off.

The recorded MRT for N=C(N)NN=CC=Cc1cccn1-c1ccccc1Br [Compound 3, acetate] is 6.83

====

# tested-target: human MC4 receptor (Homo sapiens)
# measurement-description: [125I]-NDP-MSH radio-ligand binding, MC4 (h) receptor (recombinant CHO cells)
# condition-context: 120 min/37° C.
# Experimental: Determination of binding affinities for MC receptors was performed by [^125I]-[Nle4,D-Phe7]α-MSH ([^125I]-NDP-MSH) radio-ligand binding. […] The results were expressed as a percent of control specific binding obtained in the presence of the test compounds. The IC50 values (concentration causing a half-maximal inhibition of control specific binding) and Hill coefficients (nH) were determined by non-linear regression analysis of the competition curves using Hill equation curve fitting. […]
measurement-kind: Ki (nM)

[A] N=C(N)NN=CC=Cc1cccn1-c1ccccc1Br [Compound 3, acetate]
[B] N=C(N)NN=CC=Cc1cccn1-c1ccc(Cl)cc1 [Compound 1, acetate]
Query :: Compare A and B by numeric Ki and name the larger one. Refer to your chosen item by its label in the answer.
Result :: B
(B: 620 nM, A: 300 nM)

====

# measurement-description: Plasma kinetics in rat following intravenous and oral administration
# Type: in vivo, Sprague Dawley rats
# condition-context: male, Sprague Dawley, rat, plasma, po, 10 mg/kg, oral 10 mg/kg, male rats, Arithmetic Mean; read-out: Cmax
measurement-kind: Cmax (ng/mL)

[P] N=C(N)NN=CC=Cc1cccn1-c1ccc(Cl)cc1 [Compound 1, acetate]
[Q] N=C(N)NN=CC=Cc1cccn1-c1ccccc1[N+](=O)[O-] [Compound 2, acetate]
Query :: API: POST /compare with P and Q ; response names the item with higher Cmax. Indicate which entry you chose by stating its label.
Result :: P

====

# measurement-description: Plasma kinetics in rat following intravenous and oral administration
# Type: in vivo, Sprague Dawley rats
# condition-context: male, Sprague Dawley, rat, plasma, iv, 10 mg/kg, intravenous 10 mg/kg, male rats, Median; read-out: AUC0-t
measurement-kind: AUC(0-t) (ng·h/mL)

# compound, reported-result
records = [
    ("N=C(N)NN=CC=Cc1cccn1-c1ccccc1Br [Compound 3, acetate]", 2260),
]

[1] N=C(N)NN=CC=Cc1cccn1-c1ccccc1[N+](=O)[O-] [Compound 2, acetate]
[2] N=C(N)NN=CC=Cc1cccn1-c1ccc(Cl)cc1 [Compound 1, acetate]
Query :: Could you tell me which of 1 and 2 has the lower AUC(0-t) reading? Reply with the label of the item you choose.
Result :: 1

====

# tested-target: human MC4 receptor (Homo sapiens, UniProt P32245)
# Construct: expressed in transfected cells; host or cells: CHO cells
# Sequence (P32245 whole entry): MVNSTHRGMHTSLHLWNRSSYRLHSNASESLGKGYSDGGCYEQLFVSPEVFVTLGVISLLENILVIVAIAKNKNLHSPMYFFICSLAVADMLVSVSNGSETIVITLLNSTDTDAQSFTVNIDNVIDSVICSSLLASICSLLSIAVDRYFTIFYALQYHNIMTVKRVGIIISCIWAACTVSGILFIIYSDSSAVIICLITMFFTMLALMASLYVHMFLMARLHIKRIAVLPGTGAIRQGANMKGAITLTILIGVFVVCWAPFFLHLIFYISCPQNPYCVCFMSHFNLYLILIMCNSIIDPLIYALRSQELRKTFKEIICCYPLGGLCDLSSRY
# measurement-description: [125I]-NDP-MSH radio-ligand binding, MC4 (h) receptor (recombinant CHO cells)
# condition-context: 120 min/37° C.
measurement-kind: Ki

# molecule, Ki
rows = [
    ("N=C(N)NN=Cc1cccn1-c1ccc(Cl)cc1 [Reference-compound 1, acetate, reference compound]", "> 1000 nM"),
]

Value of measured Ki for the entry N=C(N)NN=Cc1cccn1-c1ccccc1[N+](=O)[O-] [Reference-compound 2, acetate, reference compound] : > 1000 nM

// N=C(N)NN=CC=Cc1cccn1-c1ccccc1[N+](=O)[O-] [Compound 2, acetate] : Ki value = > 1000 nM
